Target: Peroxisome proliferator-activated receptor delta (Homo sapiens)
Sequence (Q03181 whole entry): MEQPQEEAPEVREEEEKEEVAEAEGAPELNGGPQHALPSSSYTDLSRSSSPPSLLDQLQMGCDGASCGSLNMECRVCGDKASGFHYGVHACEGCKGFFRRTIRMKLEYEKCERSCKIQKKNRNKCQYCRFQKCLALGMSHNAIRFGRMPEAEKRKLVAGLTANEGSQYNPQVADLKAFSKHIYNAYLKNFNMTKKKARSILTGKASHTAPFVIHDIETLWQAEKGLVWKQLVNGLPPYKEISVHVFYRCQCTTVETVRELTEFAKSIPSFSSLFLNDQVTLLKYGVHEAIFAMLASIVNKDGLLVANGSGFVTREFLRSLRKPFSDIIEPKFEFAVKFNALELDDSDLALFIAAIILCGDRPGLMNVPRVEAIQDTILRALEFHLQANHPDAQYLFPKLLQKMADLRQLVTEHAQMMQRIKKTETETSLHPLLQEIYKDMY
pEC50: −log10 of the molar value.

structureString	assayedTarget	limitSign	pEC50
Cc1cc(OCc2nc(-c3ccc(C(=O)N4CCCCC4)cc3)c(-c3ccc(OC(F)(F)F)cc3)o2)ccc1OCC(=O)O	Peroxisome proliferator-activated receptor delta (Homo sapiens)	=	7.74
Cc1cc(OCc2nc(-c3ccc4c(c3)OCCO4)c(-c3ccc(OC(F)(F)F)cc3)s2)ccc1OCC(=O)O	Peroxisome proliferator-activated receptor delta (Homo sapiens)	=	7.77
COc1ccc(-c2nc(COc3ccc(OCC(=O)O)c(C)c3)sc2-c2cccc3ccccc23)cc1	Peroxisome proliferator-activated receptor delta (Homo sapiens)	<	5.00
COc1ccc(-c2nc(COc3ccc(OCC(=O)O)c(C)c3)sc2-c2ccc(OC(F)(F)F)cc2)cn1	Peroxisome proliferator-activated receptor delta (Homo sapiens)	=	7.77
Cc1cc(OCc2nc(-c3ccc4c(c3)OCO4)c(-c3ccc(OC(F)(F)F)cc3)s2)ccc1OCC(=O)O	Peroxisome proliferator-activated receptor delta (Homo sapiens)	=	7.51

Data credit: ChEMBL document CHEMBL1153748
